Tested on: IGROV-1
Test: NCI tumour cell line growth inhibition, 48 h
The source made the active and inactive calls. No stated cut-off is given here; in the data, active = GI50 up to about 1.1 µM and inactive = higher.
Tick one outcome: active, inactive

Some solved cases for reference:
[
  {
    "compound": "CN(C)CCOc1ccc2[nH]c(C(=O)N3CC(CCl)c4c3cc(N)c3ccccc43)cc2c1 (centres undefined)",
    "class": "active"
  },
  {
    "compound": "O=Cc1c(Br)[nH]c2ccccc12",
    "class": "inactive"
  },
  {
    "compound": "CN(C)C(=S)SCc1ccccc1",
    "class": "inactive"
  },
  {
    "compound": "COc1ccccc1-c1cc(O)c2c(C)cc(C)nc2n1",
    "class": "inactive"
  }
]

Per the records of this test, what outcome belongs to `CN(OC(=O)CC(=O)c1ccccc1)C(=O)Cc1ccccc1` ? inactive

Per the records of this test, what outcome belongs to COc1cc(C2c3cc4c(cc3[C@@H](NCCN3CCOCC3)C3COC(=O)[C@H]23)OCO4)cc(OC)c1O (some centres undefined) ? inactive

Per the records of this test, what outcome belongs to COC(=O)Cc1cc(O)c(C/C=C(\C)CC/C=C(\C)C(O)C(=O)C=C(C)C)cc1O (centres undefined) ? inactive

Per the records of this test, what outcome belongs to CCCCCCCCCCCCCCCCOCC(O)CO (centres undefined) ? inactive

Per the records of this test, what outcome belongs to `NC1=NS(=O)(=O)Nc2nc(-c3ccc(Cl)cc3)c(-c3ccc(Cl)cc3)nc21` ? inactive
